# target-system: Glutamate NMDA receptor
# assay-method-text: Binding affinity for N-methyl-D-aspartate glutamate receptor of cerebral cortical synaptic membranes from rats using [3H]MK-801 as radioligand
Each record here notes measured IC50.
Report the figure in µM without appending any unit label.

molecule	IC50, µM
CCCN(CCC)C(=O)/C(=C\C1CCCN1)c1ccccc1 (centres undefined)	0.54
CCCN(CCC)C(=O)/C(=C\C1CCCN1)c1ccc(OC)cc1 (centres undefined)	160
O=C(/C(=C\C1CCCN1)c1ccccc1)N1CCCCCC1 (centres undefined)	16

Let us move to another entry and its IC50.
Inquiry: // lookup IC50 for CCCCN(CCCC)C(=O)/C(=C\C1CCCN1)c1ccccc1 (centres undefined)
Reply text: 4.2
